Where do the numbers come from? From PubChem BioAssay (NCI).

system: T-47D breast; assay: NCI tumour cell line growth inhibition, 48 h
GI50 listing for selected compounds.
EXPERIMENTAL READOUT: GI50

* CC12OC(C(=O)C13CC3)C1C(=O)c3c(O)ccc(O)c3C(=O)C12 (stereo not given) | 11.6 µM
* Cc1c(Nc2nccc3cc(CN4CC[C@@H](O)C4)cnc23)cccc1-c1cccc(-c2nc3cc(CN4CC[C@@H](C(=O)O)C4)cc(C#N)c3o2)c1C | > 100 µM
* CCC[CH2][Sn]([CH2]CCC)([CH2]CCC)/[C](=C/[Si](C)(C)c1ccccc1)c1ccc2c(c1)OCO2 | 24.6 µM
* C=CC1C(CC2OC(CO)C(O)C(O)C2O)OC=C2C(=O)OCCC21O (stereo not given) | 32 µM
* CC(C)=Cc1cc(C)c2ccc(C)c3c2c1C(C)=C(O)C3=O | 16.9 µM

###

# TGI annotations
system: HL-60(TB) leukemia; assay: NCI tumour cell line growth inhibition, 48 h
EXPERIMENTAL READOUT: TGI

- COc1cc2c(cc1OC)C(C(CBr)CBr)N(C1CCCC1)CC2 (stereo unspecified): > 100 µM
- Cc1nc2ccc(Br)cc2c(=O)n1-c1ccc(N)cc1: > 100 µM
- O=S(=O)(/N=S(/Nc1ccccc1)C(F)(F)Cl)c1ccccc1 (stereo unspecified): > 100 µM
- COC(=O)c1c2c(cc3c1CC1(Cc4cc5c(c(C)c4C1)CCC5)C3)CCC2 (stereo unspecified): > 100 µM
- CCOC(=O)[C@@]12C(C)=CC(=O)O[C@]1(C)C1C(=O)NC(=O)C12 (stereo partly specified): > 100 µM
- O=c1c2ccccc2oc2ccccc12 (tested in a mixture with another compound): > 100 µM

###

Listed below: TGI values for each entry.
test system: DU-145 prostate; test: NCI tumour cell line growth inhibition, 48 h
EXPERIMENTAL READOUT: TGI

- COC(=O)[C@@H](NS(=O)(=O)CC12CCC(CC1)C2(C)C)C(C)(C)C: > 100 µM
- Cc1nc(C)c(N2CCN(CN)CC2)c(=O)[nH]1: > 100 µM
- O=C(O)CSC1=NNC2(C(=O)N1)c1ccccc1-c1ccccc12: > 10 µM
- C=CC(C)(C)/C=C/c1ccc(O)cc1: > 100 µM
- O=C1CCCCC/C1=C\c1cccc(F)c1: > 100 µM

###

tested on: CCRF-CEM leukemia; experiment: NCI tumour cell line growth inhibition, 48 h
EXPERIMENTAL READOUT: TGI

* Nc1nc(Cl)nc2c1ncn2C1OC(CO)C(O)C1F (centres undefined) | 0.424 µM
* COc1cc(Cl)c(CC(=O)c2c[nH]c3ccccc23)cc1OC | > 57.5 µM
* N/N=C(/N)SCCCCCCCCCCS/C(N)=N/N | > 100 µM
* O=c1c2ccccc2nc(N/N=C/c2ccc([N+](=O)[O-])cc2)n1-c1ccccc1 | > 100 µM

###

Quick reference for TGI among some compounds
system: K-562 leukemia; experiment: NCI tumour cell line growth inhibition, 48 h
EXPERIMENTAL READOUT: TGI

• NC1CCCCC1NCCNC1CCCCC1N (stereo not given) = > 100 µM
• CCCC(O)c1cn(-c2cccc(S(=O)(=O)O)c2)nn1 (stereo not given) = > 100 µM
• O=C1NC(=O)C(=Cc2cn(Cc3ccccc3)c3ccccc23)C(=O)N1 = > 48.6 µM
• COc1cc(Cc2c(C)cc(OC)c3[nH]c4ccccc4c23)cc2c1[nH]c1ccccc12 = > 25 µM
• C=C(Br)C[N+]12CN3CN(CN(C3)C1)C2 = > 100 µM
